# TARGET OF ASSAY: Insulin-degrading enzyme (Homo sapiens)
# ASSAY TEXT: human IDE inhibitors in live cells, confirmation, fluorescence polarization, HEK cells, FAbetaB substrate (AID 435028)
# CONDITION DETAILS: FAbetaB cleavage, at 5.59 µM
Some of the results follow. Activity calls are given as the source filed them.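 The calls were made as follows: active = mean inhibition across triplicate wells above the cutoff set by the earlier primary insulin-degrading enzyme screen (cut at about 16% in these data); inactive = the rest.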
Outcomes: y (active), n (inactive)

COMPOUND	TARGET OF ASSAY	ASSIGNED CATEGORY
C[n+]1ccc(/C=C/c2c[nH]c3ccccc23)cc1	Insulin-degrading enzyme (Homo sapiens)	y
O=C(c1cccnc1)N(c1cc2sc(=O)oc2c2ccccc12)S(=O)(=O)c1ccccc1	Insulin-degrading enzyme (Homo sapiens)	n
COc1cc(/C=C(\C#N)c2nc3ccccc3[nH]2)ccc1O	Insulin-degrading enzyme (Homo sapiens)	y
CCN1CCCC1CNc1ncnc2c1[nH]c1ccc(F)cc12 (configuration not stated)	Insulin-degrading enzyme (Homo sapiens)	n
O=C(N/N=C/c1ccc(OC(=O)c2ccccc2Cl)cc1)c1ccc(O)cc1	Insulin-degrading enzyme (Homo sapiens)	n
C=CCOc1cccc(C2C(C(=O)c3ccc(C)o3)=C(O)C(=O)N2c2nnc(C)s2)c1 (configuration not stated)	Insulin-degrading enzyme (Homo sapiens)	n
N#C/C(=C\c1ccc(O)c(O)c1)C(=O)NCc1ccccc1	Insulin-degrading enzyme (Homo sapiens)	y
CCCc1nc(SCC(=O)Nc2ccc(S(=O)(=O)N(C)C)cc2)c2ccccc2n1	Insulin-degrading enzyme (Homo sapiens)	n
CCN1/C(=C/c2ccc3ccc(C)cc3[n+]2CC)Sc2ccccc21	Insulin-degrading enzyme (Homo sapiens)	y
CCC(=C/c1sc2ccc3ccccc3c2[n+]1C)/C=C1\Sc2ccc3ccccc3c2N1C	Insulin-degrading enzyme (Homo sapiens)	n
CCCCc1cc(=O)oc2c(C)c(OCC(=O)N3CCC(C(N)=O)CC3)ccc12	Insulin-degrading enzyme (Homo sapiens)	n
COc1cc(/C=C(\C#N)c2nc3c(s2)CC(C)CC3)ccc1O (configuration not stated)	Insulin-degrading enzyme (Homo sapiens)	y

Reference source: PubChem BioAssay
